# assay_system: TLR8 (Homo sapiens)
# Sequence (Q9NR97 27-1041): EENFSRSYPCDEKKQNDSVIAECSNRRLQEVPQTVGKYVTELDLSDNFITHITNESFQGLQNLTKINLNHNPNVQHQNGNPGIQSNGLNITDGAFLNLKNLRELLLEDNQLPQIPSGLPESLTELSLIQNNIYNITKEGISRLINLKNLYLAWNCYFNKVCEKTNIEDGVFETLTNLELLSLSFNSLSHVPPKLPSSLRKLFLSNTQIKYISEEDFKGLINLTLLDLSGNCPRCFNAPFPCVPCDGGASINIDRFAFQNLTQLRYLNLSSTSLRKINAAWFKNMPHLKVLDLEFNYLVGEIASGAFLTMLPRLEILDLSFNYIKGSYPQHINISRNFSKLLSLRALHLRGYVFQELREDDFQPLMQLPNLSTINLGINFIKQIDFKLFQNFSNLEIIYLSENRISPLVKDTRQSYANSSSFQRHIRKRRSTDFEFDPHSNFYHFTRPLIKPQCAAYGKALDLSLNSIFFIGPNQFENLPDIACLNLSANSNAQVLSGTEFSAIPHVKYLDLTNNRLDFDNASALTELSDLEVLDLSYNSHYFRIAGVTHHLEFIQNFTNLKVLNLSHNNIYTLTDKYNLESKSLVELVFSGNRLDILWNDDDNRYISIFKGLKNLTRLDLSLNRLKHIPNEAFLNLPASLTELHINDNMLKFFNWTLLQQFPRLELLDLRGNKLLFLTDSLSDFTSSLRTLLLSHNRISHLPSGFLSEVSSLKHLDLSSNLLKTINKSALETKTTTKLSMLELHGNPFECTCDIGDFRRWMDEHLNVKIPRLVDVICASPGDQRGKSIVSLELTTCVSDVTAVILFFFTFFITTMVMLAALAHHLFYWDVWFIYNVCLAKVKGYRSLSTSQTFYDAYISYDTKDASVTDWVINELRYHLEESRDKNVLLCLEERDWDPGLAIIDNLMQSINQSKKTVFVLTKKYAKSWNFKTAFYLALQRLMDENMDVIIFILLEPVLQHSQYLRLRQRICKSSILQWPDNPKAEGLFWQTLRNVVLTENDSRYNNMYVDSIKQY
# assay_remarks: huPBMC TLR8 Antagonist IL-6 TR-FRET Assay
# Assay type: cell-based
# Set-up: Fresh blood was collected from normal human donors; endogenous in cells; host or cells: human PBMCs from fresh donor blood
# measurement_context: human PBMCs stimulated with ssRNA40 1 μg/ml (DOTAP), 14-16 hrs; IL-6 TR-FRET read-out
Form field: IC50 (one value per entry).
Write the number in nM without appending the unit.

Some compounds with recorded IC50:
• Cc1nn(CC23CCC(N)(CC2)CC3)c2c1CN(c1ccnc(-c3ccccc3)c1)CC2 = 568
• Cc1cc(N2CCc3c(c(C)nn3CC34CCC(N5CCCC5)(CC3)CC4)C2)c2ccncc2n1 = 48
• Cc1cc(N2CCc3c(c(C)nn3CC34CCC(N)(CC3)CO4)C2)c2cnn(C)c2n1 = 395
• Cc1cc(N2CCc3c(c(C)nn3CC34CCC(N5CCCCC5)(CC3)CO4)C2)c2cnn(C)c2n1 = 85
• Cc1cc(N2CCc3c(c(C)nn3CC34CCC(NCC5(CO)COC5)(CC3)CC4)C2)c2cnn(C)c2n1 = 68

What is its IC50 for TLR8 (Homo sapiens)? Entry: Cc1cc(N2CCc3c(c(C(F)(F)F)nn3CC34CCC(N)(CC3)CC4)C2)c2cnn(C)c2n1
630

What is its IC50 for TLR8 (Homo sapiens)? Entry: Cc1nc(N2CCc3c(c(C)nn3CC34CCC(N5CCCCC5)(CC3)CC4)C2)c2cnn(C)c2n1
119

---

# assay_system: TLR9 (Homo sapiens)
# Construct: Fresh blood was collected from normal human donors; endogenous in cells
# Sequence (Q9NR96 26-1032): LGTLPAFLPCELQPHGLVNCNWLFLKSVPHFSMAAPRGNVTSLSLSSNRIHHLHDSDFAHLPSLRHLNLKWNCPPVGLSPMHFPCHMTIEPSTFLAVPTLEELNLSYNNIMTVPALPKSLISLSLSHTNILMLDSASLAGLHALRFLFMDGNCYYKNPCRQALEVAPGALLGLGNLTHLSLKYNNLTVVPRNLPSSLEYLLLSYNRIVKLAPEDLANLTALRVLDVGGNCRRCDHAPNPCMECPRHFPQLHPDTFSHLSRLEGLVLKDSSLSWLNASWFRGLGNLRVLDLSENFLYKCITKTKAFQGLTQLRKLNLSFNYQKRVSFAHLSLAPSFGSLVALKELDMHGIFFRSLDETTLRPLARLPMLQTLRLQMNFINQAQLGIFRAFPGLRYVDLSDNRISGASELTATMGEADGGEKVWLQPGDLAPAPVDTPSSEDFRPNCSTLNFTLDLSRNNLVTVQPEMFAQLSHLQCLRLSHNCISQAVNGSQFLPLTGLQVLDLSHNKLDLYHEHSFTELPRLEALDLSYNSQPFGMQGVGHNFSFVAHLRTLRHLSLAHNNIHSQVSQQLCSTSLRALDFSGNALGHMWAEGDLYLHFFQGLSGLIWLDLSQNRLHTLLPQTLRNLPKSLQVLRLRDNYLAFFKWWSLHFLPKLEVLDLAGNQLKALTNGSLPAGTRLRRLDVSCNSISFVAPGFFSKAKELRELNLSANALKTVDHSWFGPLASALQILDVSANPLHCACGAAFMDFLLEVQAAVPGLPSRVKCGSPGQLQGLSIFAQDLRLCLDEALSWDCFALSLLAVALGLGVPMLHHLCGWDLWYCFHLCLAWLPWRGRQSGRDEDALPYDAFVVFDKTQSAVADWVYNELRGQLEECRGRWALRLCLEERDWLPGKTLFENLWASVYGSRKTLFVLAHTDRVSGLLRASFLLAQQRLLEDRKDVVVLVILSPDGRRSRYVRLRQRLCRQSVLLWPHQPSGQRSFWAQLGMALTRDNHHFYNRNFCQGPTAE
# assay_remarks: huPBMC TLR9 Antagonist IFNα Assay
# measurement_context: human PBMCs stimulated with ODN2216 0.3 μM, 14-16 hrs; IFNα2b AlphaLISA read-out
parameter_measured: pIC50
The value called pIC50 is obtained by taking minus log10 of the concentration in mol/L.

• Cc1cc(N2CCc3c(c(C)nn3CC34CCC(N5CCC5)(CC3)CC4)C2)c2cnn(C)c2n1 [compound 64] = 6.35
• CCNCCC(=O)NC12CCC(Cn3nc(C)c4c3CCN(c3cc(C)nc5c3cnn5C)C4)(CC1)CC2 [compound 126] = 5.02
• Cc1cc(N2CCc3c(c(C)nn3CC34CCC(N5CCOC[C@H]5C)(CC3)CC4)C2)c2cnn(C)c2n1 [compound 129] = 5.98

Next item in the queue.
Request the reported pIC50 associated with [2H]C([2H])([2H])n1ncc2c(N3CCc4c(c(C)nn4CC45CCC(N)(CC4)CC5)C3)cc(C)nc21 [Compound No. 140]
5.74

---

# assay_system: UniProt:Q9NR97
# assay_remarks: huPBMC TLR8 Antagonist IL-6 TR-FRET Assay
# Assay type: cell-based
# Set-up: Fresh blood was collected from normal human donors; endogenous in cells; host or cells: human PBMCs from fresh donor blood
# measurement_context: human PBMCs stimulated with ssRNA40 1 μg/ml (DOTAP), 14-16 hrs; IL-6 TR-FRET read-out
parameter_measured: pIC50
The value called pIC50 is obtained by taking minus log10 of the concentration in mol/L.

Some molecules with recorded pIC50:
• CCn1ncc2c(N3CCc4c(c(C)nn4CC45CCC(N)(CC4)CC5)C3)cc(C)nc21 [compound 150] = 5.38
• CCN(C)C12CCC(Cn3nc(C)c4c3CCN(c3cc(C)nc5c3cnn5C)C4)(CC1)CC2 [compound 97] = 7.05
• CCn1ncc2c(N3CCc4c(c(C)nn4CC45CCC(NC(=O)[C@@H]6COCCN6)(CC4)CC5)C3)cc(C)nc21 [compound 141] = 5.64
• Cc1cc(N2CCc3c(c(C)nn3CC34CCC(N(C)C(C)C)(CC3)CC4)C2)c2cnn(C)c2n1 [compound 78] = 6.32
• Cc1cc(N2CCc3c(c(C)nn3CC34CCC(N)(CC3)CC4)C2)c2ccnc(C)c2n1 [compound 92] = 7.40

Request the reported pIC50 associated with CNCC(=O)NC12CCC(Cn3nc(C)c4c3CCN(c3cc(C)nc5c3cnn5C)C4)(CC1)CC2 [compound 121]
7.41

Request the reported pIC50 associated with Cc1cc(N2CCc3c(c(C)nn3CC34CCC(NC(=O)C5CNC5)(CC3)CC4)C2)c2cnn(C)c2n1 [compound 131]
6.44

---

Form field: pIC50 (one value per entry).
# assay_system: TLR7 (Homo sapiens)
# Construct: Fresh blood was collected from normal human donors; endogenous in cells
# Sequence (Q9NYK1 27-1049): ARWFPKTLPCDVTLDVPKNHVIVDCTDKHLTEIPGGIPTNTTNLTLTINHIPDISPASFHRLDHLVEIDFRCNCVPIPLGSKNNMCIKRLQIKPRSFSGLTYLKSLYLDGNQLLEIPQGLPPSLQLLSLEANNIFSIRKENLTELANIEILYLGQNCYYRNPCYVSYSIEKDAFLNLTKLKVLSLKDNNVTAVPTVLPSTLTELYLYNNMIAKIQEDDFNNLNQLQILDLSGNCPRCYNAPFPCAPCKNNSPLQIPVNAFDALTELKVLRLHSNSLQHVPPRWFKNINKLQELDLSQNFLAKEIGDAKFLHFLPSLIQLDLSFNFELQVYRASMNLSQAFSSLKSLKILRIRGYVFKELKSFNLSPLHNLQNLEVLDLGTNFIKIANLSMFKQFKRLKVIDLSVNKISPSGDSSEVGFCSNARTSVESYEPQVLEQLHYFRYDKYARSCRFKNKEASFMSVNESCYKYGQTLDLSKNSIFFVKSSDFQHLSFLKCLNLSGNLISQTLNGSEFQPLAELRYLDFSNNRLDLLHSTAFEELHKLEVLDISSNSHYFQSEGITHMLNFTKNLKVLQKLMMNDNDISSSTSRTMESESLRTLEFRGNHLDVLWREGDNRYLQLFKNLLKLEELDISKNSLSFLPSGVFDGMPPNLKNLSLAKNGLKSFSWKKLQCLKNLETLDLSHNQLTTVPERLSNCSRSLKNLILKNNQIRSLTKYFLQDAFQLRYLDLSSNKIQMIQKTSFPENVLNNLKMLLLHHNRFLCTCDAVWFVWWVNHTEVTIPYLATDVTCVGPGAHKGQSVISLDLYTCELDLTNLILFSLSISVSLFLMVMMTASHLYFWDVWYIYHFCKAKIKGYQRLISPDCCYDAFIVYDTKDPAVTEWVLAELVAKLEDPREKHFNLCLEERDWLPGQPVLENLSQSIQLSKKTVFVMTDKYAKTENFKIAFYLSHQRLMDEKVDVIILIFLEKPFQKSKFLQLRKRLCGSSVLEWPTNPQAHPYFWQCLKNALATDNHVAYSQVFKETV
# assay_remarks: huPBMC TLR7 Antagonist IFNα Assay
# measurement_context: human PBMCs stimulated with ssRNA40 10 μg/mL (DOTAP), 14-16 hrs; IFNα2b AlphaLISA read-out
The value called pIC50 is obtained by taking minus log10 of the concentration in mol/L.

- CCn1ncc2c(N3CCc4c(c(C)nn4CC45CCC(NC(=O)OC(C)(C)C)(CC4)CC5)C3)cc(C)nc21: 7.21
- Cc1nc(N2CCc3c(c(C)nn3CC34CCC(N5CCCCC5)(CC3)CC4)C2)c2c(n1)c(C)nn2C: 7.38
- Cc1nc(N2CCc3c(c(C)nn3CC34CCC(N5CCOCC5)(CC3)CC4)C2)c2c(C)noc2n1: 6.80

Request the reported pIC50 associated with CCNCC(=O)NC12CCC(Cn3nc(C)c4c3CCN(c3cc(C)nc5cn[nH]c35)C4)(CC1)CC2
5.98

Request the reported pIC50 associated with Cc1cc(N2CCc3c(c(C)nn3CC34CCC(NC(=O)C5CNC5)(CC3)CC4)C2)c2cnn(C)c2n1
8.52

Request the reported pIC50 associated with Cc1nc(N2CCc3c(c(C)nn3CC34CCC(N5CCOCC5)(CC3)CC4)C2)c2cnn(C)c2n1
7.26

Request the reported pIC50 associated with Cc1nn(CC23CCC(N)(CC2)CC3)c2c1CN(c1nc(Cl)nc3cnn(C)c13)CC2
6.54

---

# assay_system: TLR9 (Homo sapiens)
# Construct: Fresh blood was collected from normal human donors; endogenous in cells
# assay_remarks: huPBMC TLR9 Antagonist IFNα Assay
# measurement_context: human PBMCs stimulated with ODN2216 0.3 μM, 14-16 hrs; IFNα2b AlphaLISA read-out
parameter_measured: IC50 (µM)
Write the number in µM without appending the unit.

Some compounds with recorded IC50:
• Cc1cc(N2CCc3c(c(C)nn3CC34CCC(NC(=O)CN5CC(O)C5)(CC3)CC4)C2)c2cnn(C)c2n1 = 1.17
• Cc1cc(N2CCc3c(c(C)nn3CCC34CCC(N)(CC3)CC4)C2)c2cnn(C)c2n1 = 0.215

Next item in the queue.
Request the reported IC50 associated with Cc1cc(N2CCc3c(c(C)nn3CC34CCC(NCC5CCC5)(CC3)CO4)C2)c2cnn(C)c2n1
1.19
